Tested on: Influenza A virus (A/Anhui/1/2005(H5N1))
procedure-details: Inhibition of Influenza A virus (A/Anhui/1/2005(H5N1) Neuraminidase using MUNANA as substrate at 10 uM preincubated for 5 to 15 mins followed by substrate addition and measured after 30 mins by fluorescence spectrophotometric method
applied-conditions: time 35-45 min
Active and inactive are the calls of the source. No cut-off for these calls is given here.
quantity-kind: inhibition

Use the examples below as a reference point.
CCC(CC)O[C@@H]1C=C(C(=O)O)C[C@H](NC(=O)N(C(C)C)C(C)C)[C@H]1NC(C)=O 32.3%
CCC(CC)O[C@@H]1C=C(C(=O)O)C[C@H](NC(=O)NCc2ccc(OC)cc2)[C@H]1NC(C)=O inactive
CCC(CC)O[C@@H]1C=C(C(=O)O)C[C@H](NC(=S)NC2CC2)[C@H]1NC(C)=O 8.7%
CCC(CC)O[C@@H]1C=C(C(=O)O)C[C@H](NC(=O)N2CCCCC2)[C@H]1NC(C)=O 25.6%

Query: GET /values?readout=inhibition&item= "CCC(CC)O[C@@H]1C=C(C(=O)O)C[C@H](NC(=O)NCc2ccc(C#N)cc2)[C@H]1NC(C)=O"
Reply: inactive

Query: GET /values?readout=inhibition&item= "CCC(CC)O[C@@H]1C=C(C(=O)O)C[C@H](NC(=S)Nc2ccccc2)[C@H]1NC(C)=O"
Reply: 16.6%

Query: GET /values?readout=inhibition&item= "CCC(CC)O[C@@H]1C=C(C(=O)O)C[C@H](NC(=O)NCc2ccccc2)[C@H]1NC(C)=O"
Reply: 6.8%

Query: GET /values?readout=inhibition&item= "CCC(CC)O[C@@H]1C=C(C(=O)O)C[C@H](NC(=S)NCc2ccc(F)cc2)[C@H]1NC(C)=O"
Reply: inactive
